tested on: HCC1937; experiment: Free drug cell killing activity (cell proliferation assay, Cell Titer-Glo); assay type: cell-based; conditions: Homo sapiens, HCC1937, 120 h
Property label: EC50 (nM)
Your answer should be a plain number; it is taken to be in nM.

Q: Note down EC50 recorded for CC[C@@]1(O)C(=O)OCc2c1cc1n(c2=O)Cc2c-1nc1cc(F)c(C)c3c1c2[C@@H](N)CC3
Result: 3.5

----------
system: MDA-MB-468; assay: Free drug cell killing activity (cell proliferation assay, Cell Titer-Glo); assay type: cell-based; conditions: Homo sapiens; MDA-MB-468, 120 hours; read-out: EC50
Property label: pEC50
The value called pEC50 is obtained by taking minus log10 of the concentration in mol/L.

Q: Give MDA-MB-468 pEC50 for the following compound: CC[C@@]1(O)C(=O)OCc2c1cc1n(c2=O)Cc2c-1nc1cc(F)c(C)c3c1c2[C@@H](NC(=O)CN)CC3
Result: 8.28

----------
tested on: MDA-MB-361; test: Free drug cell killing activity (cell proliferation assay, Cell Titer-Glo); assay type: cell-based; conditions: Homo sapiens; MDA-MB-361, 120 hours; read-out: EC50
Property label: pEC50
The value called pEC50 is obtained by taking minus log10 of the concentration in mol/L.

Q: Note down pEC50 recorded for CC[C@@]1(O)C(=O)OCc2c1cc1n(c2=O)Cc2c-1nc1cc(F)c(C)c3c1c2[C@@H](NC(=O)CN)CC3
Result: 8.35

----------
test system: NCI-H1703; assay: Free drug cell killing activity (cell proliferation assay, Cell Titer-Glo); format: cell-based; settings: Homo sapiens, NCI-H1703, 120 h
Property label: pEC50
The value called pEC50 is obtained by taking minus log10 of the concentration in mol/L.

Q: Note down pEC50 recorded for CC[C@@]1(O)C(=O)OCc2c1cc1n(c2=O)Cc2c-1nc1cc(F)c(C)c3c1c2[C@@H](N)CC3 [Exatecan, exatecan]
Result: 8.96

----------
Tested on: A549
Experiment: Free drug cell killing activity (cell proliferation assay, Cell Titer-Glo)
Assay type: cell-based
Conditions: Homo sapiens, A549, 120 h
Protocol: The in vitro cell killing activity of exatecan, gly-exatecan, and hemiasterlin were evaluated in a panel of breast cancer and lung cancer cell lines. MDA-MB-361, SKBR3, BT20, HCC38, HCC1143, HCC1937, JIMT1, MCF-7, A549, NCI-H441, NCI-H520, NCI-H1703, NCI-H1975, NCI-H2110, NCI-H226, NCI-H292, NCI-H358 cells were purchased from ATCC (American Type Culture Collection, Manassas, VA, USA). […] Cytotoxicity effect of the Exatecan warhead was measured with a cell proliferation assay. […]
Property label: pEC50
The value called pEC50 is obtained by taking minus log10 of the concentration in mol/L.

Q: Note down pEC50 recorded for CC[C@@]1(O)C(=O)OCc2c1cc1n(c2=O)Cc2c-1nc1cc(F)c(C)c3c1c2[C@@H](N)CC3
Result: 8.92

----------
test system: HCC38; assay: Free drug cell killing activity (cell proliferation assay, Cell Titer-Glo); format: cell-based; details: Homo sapiens, HCC38, 120 h
Property label: pEC50
The value called pEC50 is obtained by taking minus log10 of the concentration in mol/L.

Q: Give HCC38 pEC50 for the following compound: CC[C@@]1(O)C(=O)OCc2c1cc1n(c2=O)Cc2c-1nc1cc(F)c(C)c3c1c2[C@@H](N)CC3
Result: 9.42

----------
system: NCI-H292; assay: Free drug cell killing activity (cell proliferation assay, Cell Titer-Glo); assay type: cell-based; conditions: Homo sapiens, NCI-H292, 120 h
Property label: EC50 (nM)
Your answer should be a plain number; it is taken to be in nM.

Q: Note down EC50 recorded for CC[C@@]1(O)C(=O)OCc2c1cc1n(c2=O)Cc2c-1nc1cc(F)c(C)c3c1c2[C@@H](N)CC3
Result: 0.36

----------
test system: NCI-H2110; assay: Free drug cell killing activity (cell proliferation assay, Cell Titer-Glo); type: cell-based; details: NCI-H2110, 120 hours; read-out: EC50
Property label: EC50 (nM)
Your answer should be a plain number; it is taken to be in nM.

Q: Note down EC50 recorded for CC[C@@]1(O)C(=O)OCc2c1cc1n(c2=O)Cc2c-1nc1cc(F)c(C)c3c1c2[C@@H](NC(=O)CN)CC3
Result: 9.2
